# Tested on: MCF7
# Assay: Cytotoxicity against human MCF7 cells after 72 hrs by MTT assay
# Type: functional, cell-based
# Condition Context: Homo sapiens, MCF7, 72 h; read-out: IC50
Measured Quantity: pIC50
Recall that pIC50 is obtained by taking minus log10 of the concentration measured in molar.

Ask: I'm curious: which pIC50 was measured for Cc1ccc(N(C(=O)c2ccccc2Cl)C(C(=O)NC2CCCCC2)c2cc(=O)c(OCc3ccccc3)co2)cc1 (stereo not given) tested on MCF7?
Reply: 4.25

Ask: Now the same for CCCCc1ccc(N(C(=O)c2ccccc2Cl)C(C(=O)NC(C)(C)C)c2cc(=O)c(OCc3ccccc3)co2)cc1 (stereo not given)
Reply: 4.54

Ask: Now the same for Cc1ccc(N(C(=O)c2ccccc2Cl)C(C(=O)NC(C)(C)C)c2cc(=O)c(OCc3ccccc3)co2)cc1 (stereo not given)
Reply: 4.27

Ask: Now the same for CC(C)(C)NC(=O)C(c1cc(=O)c(OCc2ccccc2)co1)N(C(=O)c1ccccc1)c1ccccc1 (stereo not given)
Reply: 4.20

Ask: Now the same for Cc1ccc(N(C(=O)c2ccccc2)C(C(=O)NC2CCCCC2)c2cc(=O)c(OCc3ccccc3)co2)cc1 (stereo not given)
Reply: 4.95

Ask: Now the same for Cc1ccc(N(C(=O)c2ccccc2)C(C(=O)NC(C)(C)C)c2cc(=O)cc(-c3ccccc3)o2)cc1 (stereo not given)
Reply: 4.26

Ask: Now the same for O=C(NC1CCCCC1)C(c1cc(=O)c(OCc2ccccc2)co1)N(C(=O)c1ccccc1Cl)c1ccc(Cl)cc1 (stereo not given)
Reply: 3.77

Ask: Now the same for O=C(NC1CCCCC1)C(c1cc(=O)c(OCc2ccccc2)co1)N(C(=O)c1ccccc1Cl)c1ccccc1 (stereo not given)
Reply: 4.07

Ask: Now the same for COc1ccc(N(C(=O)c2ccccc2Cl)C(C(=O)NC(C)(C)C)c2cc(=O)cc(-c3ccccc3)o2)cc1 (stereo not given)
Reply: 5.04

Ask: Now the same for COc1ccc(N(C(=O)c2ccccc2Cl)C(C(=O)NC(C)(C)C)c2cc(=O)c(OCc3ccccc3)co2)cc1 (stereo not given)
Reply: 4.33
